Each record here notes measured %Inh.
Test system: ERN1
test-settings: concentration: 1 μM, replicates: in singlicate; n = 1;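 also: KINOMEscan kinase panel screen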

compound-structure: Cc1ccc(O)cc1Nc1cc(C(F)(F)F)nc2ccc(-c3ccncc3)cc12
%Inh, %: 0
//
compound-structure: CN1c2ccc(-c3ccc(C(=O)NCCO)cc3)cc2-c2[nH]ncc2S1(=O)=O
%Inh, %: 1
//
compound-structure: C[C@H]1CC[C@@H](C(=O)Nc2ccccc2)CN1c1cc(-c2ccc3c(N)n[nH]c3c2)nc(N)n1
%Inh, %: 0
//
compound-structure: CC(C)N1CCC(n2cnc(-c3ccc(F)cc3)c2-c2ccnc(N)n2)CC1
%Inh, %: 0
//
compound-structure: O=C(CCO)NCCn1ccc2ncnc(Nc3ccc(Oc4cccc(C(F)(F)F)c4)c(Cl)c3)c21
%Inh, %: 0
//
compound-structure: Nc1nc(-c2ccc3c(N)n[nH]c3c2)cc(N2CCC[C@@H](C(=O)Nc3ccccc3)C2)n1.O=C(O)C(F)(F)F.O=C(O)C(F)(F)F
%Inh, %: 23
//
compound-structure: Nc1nc(-c2ccccn2)c(-c2ccnc3ccccc23)s1
%Inh, %: 14
//
compound-structure: CCc1nc(-c2cccc(C)c2)c(-c2ccnc(NC(=O)c3ccccc3)c2)s1
%Inh, %: 23

----------
Each record here notes measured %Inh.
System: ULK1
test-settings: concentration: 1 μM, replicates: in singlicate; n = 1
recorded-endpoint: %Inh (%)

compound-structure: Cc1cc(N2CCC(NS(=O)(=O)c3ccc(F)cc3)CC2)nc(Nc2cccc(C#N)c2)n1.O=C(O)C(F)(F)F
recorded-endpoint: %Inh
value-observed: 0
//
compound-structure: Cn1ccc2ncnc(Oc3ccc(NC(=O)Nc4cccnc4)c(Cl)c3)c21
recorded-endpoint: %Inh
value-observed: 0
//
compound-structure: COc1cc2c(Nc3cccc(NC(=O)c4ccccc4)c3)ncnc2cc1OCCCN1CCOCC1
recorded-endpoint: %Inh
value-observed: 17
//
compound-structure: FC(F)(F)c1ccc(-c2cc(-c3c[nH]nc3-c3ccccn3)ccn2)cc1
recorded-endpoint: %Inh
value-observed: 0
//
compound-structure: CC(=O)Nc1n[nH]c2ncc(-c3ccccc3)cc12
recorded-endpoint: %Inh
value-observed: 3

----------
System: RIPK1
test-settings: concentration: 1 μM, replicates: in singlicate; n = 1
Flag rule - %Inh less than 10% flags Yes; the remaining entries get No.

molecule: CC(=O)Nc1n[nH]c2ncc(-c3ccccc3)cc12
label-class: Yes
//
molecule: O=C(Nc1ccccc1F)NC1CCN(c2ccnc(Nc3ccc(F)cc3)n2)C1 (centres unmarked)
label-class: Yes
//
molecule: COc1ccc(NC(=O)c2ccc(-c3cc(-c4nnc(C)o4)ccc3C)cc2)cc1
label-class: Yes
//
molecule: Cl.O=S(=O)(c1cccc(F)c1)c1ccc(Nc2ncnc3cc(Br)sc23)cc1Cl
label-class: No
//
molecule: Clc1cccc(-c2nc(Nc3ccncc3)c3ccccc3n2)c1
label-class: No
//
molecule: Nc1nc(-c2cccnc2)c(-c2ccnc3ccccc23)s1
label-class: Yes
//
molecule: Cc1ccc(O)cc1Nc1cc(C(F)(F)F)nc2ccc(-c3ccncc3)cc12
label-class: No
//
molecule: CC(C)N1CCC(n2cnc(-c3ccc(F)cc3)c2-c2ccnc(N)n2)CC1
label-class: Yes
//
molecule: COc1cc2ncnc(Nc3ccc(OCc4ccccc4Br)c(Cl)c3)c2cc1OC.Cl
label-class: Yes
//
molecule: Cl.Cn1ccc(-c2cccc(Nc3ccnc4cc(-c5nccs5)ccc34)c2)n1
label-class: Yes
//
molecule: O=C(Nc1n[nH]c2nc(-c3ccco3)c(Br)cc12)c1ccc(CN2CCCC2)cc1.O=C(O)[C@H](O)[C@@H](O)C(=O)O
label-class: No
